Biological target: C3b (biotinylated, captured site-specifically on a streptavidin chip) (UniProt P01024)
Experiment: SPR (Biacore 3000), single-cycle kinetics, biotinylated C3b on streptavidin chip, peptide as analyte, 1:1 Langmuir fit
pKd: −log10 of the molar value. Bridge positions count the residues as written; N and C are the ends. Square brackets hold non-standard residues; d marks the D form. Ends that are not written are not given here. Trp(1-Me) = Cn1cc(C[C@H](N)C(=O)O)c2ccccc21; NMeI = CC[C@H](C)[C@H](NC)C(=O)O; Sar = CNCC(=O)O
Here the recorded pKd is given for each entry.

{"binder": "Me-ICVWQDW[Sar]AHRC[NMeI]-NH2 (disulfide 2-12; not fully specified (residue 4); printed as Me-Ile-[Cys-Val-Trp(Me)-Gln-Asp-Trp-Sar-Ala-His-Arg-Cys]-mIle-NH2) [Peptide 1: Me-Ile-[Cys-Val-Trp(Me)-Gln-Asp-Trp-Sar-Ala-His-Arg-Cys]-mIle-NH2]", "pKd": 7.73}
{"binder": "GICV[Trp(1-Me)]QDW[Sar]AHRC[NMeI]-NH2 (disulfide 3-13; N-terminus assumed; SMILES CC[C@H](C)[C@H](NC(=O)CN)C(=O)N[C@H]1CSSC[C@@H](C(=O)N(C)[C@H](C(N)=O)[C@@H](C)CC)NC(=O)[C@H](CCCNC(=N)N)NC(=O)[C@H](Cc2c[nH]cn2)NC(=O)[C@H](C)NC(=O)CN(C)C(=O)[C@H](Cc2c[nH]c3ccccc23)NC(=O)[C@H](CC(=O)O)NC(=O)[C@H](CCC(N)=O)NC(=O)[C@H](Cc2cn(C)c3ccccc23)NC(=O)[C@H](C(C)C)NC1=O) [Peptide 2: Gly-Ile-[Cys-Val-Trp(Me)-Gln-Asp-Trp-Sar-Ala-His-Arg-Cys]-mIle-NH2]", "pKd": 8.60}
{"binder": "VICVWQDWGAHRCI (mVal (N-methyl-Val) at Xaa0; Trp(Me) at position 4; Sar at position 8; mIle at position 13; C-terminal -NH2; cyclic via Cys2-Cys12 disulfide (compstatin position numbering)) [Peptide 11: mVal-Ile-[Cys-Val-Trp(Me)-Gln-Asp-Trp-Sar-Ala-His-Arg-Cys]-mIle-NH2]", "pKd": 8.72}
{"binder": "WICV[Trp(1-Me)]QDW[Sar]AHRC[NMeI]-NH2 (disulfide 3-13; N-terminus assumed; SMILES CC[C@H](C)[C@H](NC(=O)[C@@H](N)Cc1c[nH]c2ccccc12)C(=O)N[C@H]1CSSC[C@@H](C(=O)N(C)[C@H](C(N)=O)[C@@H](C)CC)NC(=O)[C@H](CCCNC(=N)N)NC(=O)[C@H](Cc2c[nH]cn2)NC(=O)[C@H](C)NC(=O)CN(C)C(=O)[C@H](Cc2c[nH]c3ccccc23)NC(=O)[C@H](CC(=O)O)NC(=O)[C@H](CCC(N)=O)NC(=O)[C@H](Cc2cn(C)c3ccccc23)NC(=O)[C@H](C(C)C)NC1=O) [Peptide 7: Trp-Ile-[Cys-Val-Trp(Me)-Gln-Asp-Trp-Sar-Ala-His-Arg-Cys]-mIle-NH2]", "pKd": 8.66}
{"binder": "GICVWQDWGAHRCI (Sar (N-methyl-Gly) at Xaa0 (N-terminus); Trp(Me) at position 4; Sar at position 8; mIle at position 13; C-terminal -NH2; cyclic via Cys2-Cys12 disulfide (compstatin position numbering)) [Compstatin 30 (Cp30): Sar-Ile-[Cys-Val-Trp(Me)-Gln-Asp-Trp-Sar-Ala-His-Arg-Cys]-mIle-NH2]", "pKd": 8.80}
